molecular target: Tubulin purified from pig brains (Sus scrofa, UniProt P02550+P02554); construct: Tubulin is purified from pig brains according to published methods; test: Assessment of the inhibition of tubulin polymerization (turbidimetry at 350 nm); conditions: concentration which inhibits the rate of polymerization by 50%; tubulin 1 mg/ml, 37° C.; read-out: Inhibition of tubulin polymerization IC 50
Sequence (P02550 whole entry): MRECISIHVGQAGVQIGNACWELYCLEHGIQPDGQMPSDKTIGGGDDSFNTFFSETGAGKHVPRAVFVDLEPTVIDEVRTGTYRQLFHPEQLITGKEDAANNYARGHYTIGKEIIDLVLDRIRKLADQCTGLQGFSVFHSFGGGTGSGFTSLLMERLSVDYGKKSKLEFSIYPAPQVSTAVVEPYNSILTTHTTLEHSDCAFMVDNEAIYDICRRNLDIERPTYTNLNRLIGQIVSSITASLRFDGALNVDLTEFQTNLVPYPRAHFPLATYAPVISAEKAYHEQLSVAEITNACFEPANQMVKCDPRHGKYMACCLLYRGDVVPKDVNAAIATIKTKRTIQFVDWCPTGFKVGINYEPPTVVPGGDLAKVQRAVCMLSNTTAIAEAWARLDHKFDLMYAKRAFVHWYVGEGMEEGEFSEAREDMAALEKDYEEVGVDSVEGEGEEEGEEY
Sequence (P02554 whole entry): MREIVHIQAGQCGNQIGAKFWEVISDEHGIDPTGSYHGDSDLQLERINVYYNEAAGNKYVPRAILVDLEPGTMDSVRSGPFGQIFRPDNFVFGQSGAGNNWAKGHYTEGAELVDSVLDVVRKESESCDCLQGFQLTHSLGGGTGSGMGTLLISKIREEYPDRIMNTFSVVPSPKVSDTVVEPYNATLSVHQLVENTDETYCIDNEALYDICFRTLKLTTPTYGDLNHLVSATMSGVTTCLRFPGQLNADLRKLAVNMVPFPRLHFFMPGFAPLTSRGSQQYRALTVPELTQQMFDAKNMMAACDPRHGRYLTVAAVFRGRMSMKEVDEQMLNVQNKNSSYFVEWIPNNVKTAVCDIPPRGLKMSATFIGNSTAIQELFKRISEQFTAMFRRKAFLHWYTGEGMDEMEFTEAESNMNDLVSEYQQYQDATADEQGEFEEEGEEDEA
Structures can show the parent of a compound that is named as a salt.
Measured pIC50 accompanies every entry in the list below.
Entry type: numeric. Quantity: pIC50, the -log10 of concentration in molar units.

COMPOUND: Cc1nc(-c2ccccc2)c(C(=O)N2CCN(c3cccc(CO)c3)CC2)[nH]1
TESTED SYSTEM: Tubulin purified from pig brains (Sus scrofa, UniProt P02550+P02554)
pIC50: 6.01

What does the record list as pIC50 for CS(=O)(=O)c1nc(-c2ccccc2)c(C(=O)N2CCN(c3cccc(C#N)c3)CC2)[nH]1 ? 5.43

Quick one: pIC50 for Cn1cc(C(=O)N2CCN(c3cccc(CO)c3)CC2)c(-c2ccccc2)c1 ? 6.15

Could you share which pIC50 value was measured for N#Cc1cccc(N2CCN(C(=O)c3sc(N)nc3-c3ccccc3)CC2)c1 ? 6.53

Quick check: pIC50 of COc1cc(OC)cc(N2CCN(C(=O)c3cn(C)cc3-c3ccccc3)CC2)c1 [Example 18, hydrochloride] ? 6.01

Value lookup for pIC50; key = NC(=O)c1cccc(N2CCN(C(=O)c3c[nH]cc3-c3ccccc3)CC2)c1 5.35

Fill in the blank: the reported pIC50 of COc1cc(OC)cc(N2CCN(C(=O)c3cc[nH]c3-c3ccccc3)CC2)c1 is ____. 5.01

If you can, please state the reported pIC50 value of O=C(c1cc[nH]c1-c1ccccc1)N1CCN(c2cccc(CO)c2)CC1 . 5.19

----------
molecular target: Tubulin purified from pig brains (Sus scrofa, UniProt P02550+P02554); construct: Tubulin is purified from pig brains according to published methods; from tissue; host or cells: pig brain; assay: Assessment of the inhibition of tubulin polymerization (turbidimetry at 350 nm); assay type: biochemical; details: concentration which inhibits the rate of polymerization by 50%; tubulin 1 mg/ml, 37° C.; read-out: Inhibition of tubulin polymerization IC 50
Counter-ions that a name gives are not always drawn.
Our labelling divides records by IC50 into ranges: bin A (below 0.7 µM), bin B (0.7 µM to below 2 µM), bin C (2 µM or more)

Completed entries (count: 3):
COMPOUND: O=C(c1[nH]c(S)nc1-c1ccccc1)N1CCN(c2cccc(CO)c2)CC1
CATEGORY: bin B

COMPOUND: CN(C)CCn1cc(C(=O)N2CCN(c3cccc(Cl)c3)CC2)c(-c2ccccc2)c1 [Example 31, hydrochloride]
CATEGORY: bin C

COMPOUND: COc1cc(OC)cc(N2CCN(C(=O)c3nc(SC)n(C)c3-c3ccccc3)CC2)c1
CATEGORY: bin C

Please let me know in which category the item O=C(c1[nH]c(C(F)(F)F)nc1-c1ccccc1)N1CCN(c2cccc(CO)c2)CC1 belongs. bin B

Please let me know in which category the item COc1cc(OC)cc(N2CCN(C(=O)c3ccn(C)c3-c3ccccc3)CC2)c1 belongs. bin B

Tag the class for NC(=O)c1cccc(N2CCN(C(=O)c3nc(O)[nH]c3-c3ccccc3)CC2)c1 bin A

Pick a category. Item: COc1cc(OC)cc(N2CCN(C(=O)c3[nH]cnc3-c3ccccc3)CC2)c1 bin A

Place this compound in its band: O=C(c1cc[nH]c1-c1ccccc1)N1CCN(c2cccc(Cl)c2)CC1 bin C

----------
biological target: Tubulin purified from pig brains (Sus scrofa, UniProt P02550+P02554); construct: Tubulin is purified from pig brains according to published methods; assay: Assessment of the inhibition of tubulin polymerization (turbidimetry at 350 nm); conditions: concentration which inhibits the rate of polymerization by 50%; tubulin 1 mg/ml, 37° C.; read-out: Inhibition of tubulin polymerization IC 50
ATTRIBUTE MEASURED: log10 IC50 (log10 of the value in nM)
Annotation: log10 of IC50, nM basis.

COMPOUND: COc1cccc(N2CCN(C(=O)c3[nH]cnc3-c3ccccc3)CC2)c1
log10 IC50: 2.60

COMPOUND: Cn1ccc(C(=O)N2CCN(c3cccc(C(N)=O)c3)CC2)c1-c1ccccc1
log10 IC50: 3.53

COMPOUND: N#Cc1cccc(N2CCN(C(=O)c3cc[nH]c3-c3ccccc3)CC2)c1
log10 IC50: 3.48

COMPOUND: COc1cc(OC)cc(N2CCN(C(=O)c3ccn(Cc4cccnc4)c3-c3ccccc3)CC2)c1
log10 IC50: 4.13

COMPOUND: COc1cc(OC)cc(N2CCN(C(=O)c3sc(N)nc3-c3ccccc3)CC2)c1
log10 IC50: 3.11

Moving on to another compound below.
Sample COC(=O)Cn1ccc(C(=O)N2CCN(c3cc(OC)cc(OC)c3)CC2)c1-c1ccccc1 — what was its log10 IC50? 3.20

----------
In this section, each of the molecules is paired with its reported IC50.
molecular target: Tubulin purified from pig brains (Sus scrofa, UniProt P02550+P02554); construct: Tubulin is purified from pig brains according to published methods; from tissue; host or cells: pig brain; assay: Assessment of the inhibition of tubulin polymerization (turbidimetry at 350 nm); type: biochemical; conditions: concentration which inhibits the rate of polymerization by 50%; tubulin 1 mg/ml, 37° C.; read-out: Inhibition of tubulin polymerization IC 50

These solved cases illustrate the format of a correct answer.
MOLECULE SMILES: CSc1nc(-c2ccccc2)c(C(=O)N2CCN(c3cccc(C(N)=O)c3)CC2)[nH]1
TESTED SYSTEM: Tubulin purified from pig brains (Sus scrofa, UniProt P02550+P02554)
IC50: 1380 nM

MOLECULE SMILES: O=C(c1nc(S)[nH]c1-c1ccccc1)N1CCN(c2cccc(Cl)c2)CC1
TESTED SYSTEM: Tubulin purified from pig brains (Sus scrofa, UniProt P02550+P02554)
IC50: 750 nM

Can you share its IC50? I mean this molecule: NC(=O)c1cccc(N2CCN(C(=O)c3[nH]c(S)nc3-c3ccccc3)CC2)c1 1060 nM

----------
ATTRIBUTE MEASURED: melting point (°C)
The reply should be a number in °C, with the unit left off.

Example entries and their recorded answers appear below.
COMPOUND: O=C(c1[nH]c(O)nc1-c1ccccc1)N1CCN(c2cccc(CO)c2)CC1 [Example 57]
melting point (°C): 173
//
COMPOUND: NC(=O)c1cccc(N2CCN(C(=O)c3nc(O)[nH]c3-c3ccccc3)CC2)c1 [Example 51]
melting point (°C): 202
//
COMPOUND: N#Cc1cccc(N2CCN(C(=O)c3ccn(CCO)c3-c3ccccc3)CC2)c1 [Example 81]
melting point (°C): 158

Item under review: COc1cc(OC)cc(N2CCN(C(=O)c3ccn(C(C)=O)c3-c3ccccc3)CC2)c1 [Example 63] . Reported melting point? 150

----------
target: Tubulin purified from pig brains (Sus scrofa, UniProt P02550+P02554); construct: Tubulin is purified from pig brains according to published methods; from tissue; host or cells: pig brain; experiment: Assessment of the inhibition of tubulin polymerization (turbidimetry at 350 nm); format: biochemical; settings: concentration which inhibits the rate of polymerization by 50%; tubulin 1 mg/ml, 37° C.; read-out: Inhibition of tubulin polymerization IC 50
// reported pIC50 for each item listed
Quick note: pIC50 means taking -log10 of the concentration in moles per liter.

// known answers, use as guide
COMPOUND: COc1cc(OC)cc(N2CCN(C(=O)c3[nH]c(O)nc3-c3ccccc3)CC2)c1 [Example 28]
ATTRIBUTE MEASURED: pIC50
REPORTED VALUE: 5.96
//
COMPOUND: N#Cc1cccc(N2CCN(C(=O)c3cncn3-c3ccccc3)CC2)c1 [Example 13]
ATTRIBUTE MEASURED: pIC50
REPORTED VALUE: 5.54
//
COMPOUND: N#Cc1cccc(N2CCN(C(=O)c3[nH]c(O)nc3-c3ccccc3)CC2)c1 [Example 75]
ATTRIBUTE MEASURED: pIC50
REPORTED VALUE: 6.00
//
COMPOUND: O=C(c1[nH]cnc1-c1ccccc1)N1CCN(c2cccnc2)CC1 [Example 10]
ATTRIBUTE MEASURED: pIC50
REPORTED VALUE: 5.51

Okay, next one:
Please report the recorded pIC50 for O=C(c1c[nH]cc1-c1ccccc1)N1CCN(c2cccc(Cl)c2)CC1 [Example 15] . 5.54

----------
Molecular target: Tubulin purified from pig brains (Sus scrofa, UniProt P02550+P02554)
Construct: Tubulin is purified from pig brains according to published methods
Assay: Assessment of the inhibition of tubulin polymerization (turbidimetry at 350 nm)
Details: concentration which inhibits the rate of polymerization by 50%; tubulin 1 mg/ml, 37° C.; read-out: Inhibition of tubulin polymerization IC 50
Protocol: Assessment of the Inhibition of Tubulin Polymerization […] The polymerization of the tubulin into microtubules is monitored by turbidimetry as follows: the tubulin is adjusted to a concentration of 10 μm (1 mg/ml) in the RB/2 30% glycerol buffer, to which are added 1 mM GTP and 6 mM MgCl2. […] The increase in turbidity of the solution is monitored at 350 nm. […]
ATTRIBUTE MEASURED: IC50
The reply should consist of the numeric value with the unit placed after it.

Here's what some known entries look like.
MOLECULE SMILES: O=C(c1[nH]ccc1-c1ccccc1)N1CCN(c2cccc(Cl)c2)CC1
REPORTED VALUE: 690 nM

MOLECULE SMILES: NC(=O)c1cccc(N2CCN(C(=O)c3cn(CCO)cc3-c3ccccc3)CC2)c1
REPORTED VALUE: 2430 nM

MOLECULE SMILES: COc1cc(OC)cc(N2CCN(C(=O)c3[nH]ccc3-c3ccccc3)CC2)c1
REPORTED VALUE: 1200 nM

Alright, here's another compound for you.
I'd like to know its IC50. The compound in question is NC(=O)c1cccc(N2CCN(C(=O)c3cc[nH]c3-c3ccccc3)CC2)c1 9600 nM
